Test system: foxtail, green (green foxtail, Setaria viridis)
measurement_notes: Test A postemergence, visual plant response rating
Type: in vivo
recorded_conditions: Postemergence, 125 g ai/ha; 0 to 100 scale (0 no effect, 100 complete control)
recorded_endpoint: Foxtail, Green plant response rating

Worked cases, answers included:
CCn1nc(C)c(O)c(C(=NOC)c2cccc(Cl)c2)c1=O (mixture of isomers) [Compound 2] : 0
Cc1ccccc1/C(=N/OC(C)C)c1c(O)c(C)nn(C)c1=O [Compound 19] : 10
CO/N=C(/c1cccc(C)c1)c1c(O)c(C2CC2)nn(C)c1=O [Compound 28] : 0

# ---- query compound ----
Foxtail, Green plant response rating recorded for this compound, CCO/N=C(/c1ccc(C)cc1)c1c(O)c(C)nn(C)c1=O [Compound 16] , is 0
